These measurements were taken from patent US20150133367A1.

target: Cathepsin S (UniProt P25774 115-331); experiment: fluorescence-based enzyme inhibition assay
Sequence (P25774 115-331 limits assumed): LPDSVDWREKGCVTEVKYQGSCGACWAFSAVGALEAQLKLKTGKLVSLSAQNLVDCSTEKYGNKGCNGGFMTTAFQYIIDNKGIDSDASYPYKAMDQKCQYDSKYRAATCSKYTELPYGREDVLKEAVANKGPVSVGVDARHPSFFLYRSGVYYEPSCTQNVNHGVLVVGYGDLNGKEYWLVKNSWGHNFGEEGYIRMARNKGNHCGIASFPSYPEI
pKi: −log10 of the molar value. Positions of bridges follow the written chain, without caps; N, C: chain ends. No end group written: not given here. alpha,alpha'‑meta‑xylylene = alpha,alpha'-meta-xylylene linker (from a,a'-dibromo-meta-xylene) bridging two cysteines via bis-thioether
Listing of recorded pKi by entry.

binder: WSEEVCSLMCS (linker 6-10 via alpha,alpha'‑meta‑xylylene, single mutant) [WSEEVCSLMCS (SEQ ID NO:17)]
pKi: 4.29
//
binder: TSEEWCSLMCS (linker 6-10 via alpha,alpha'‑meta‑xylylene, single mutant) [TSEEWCSLMCS (SEQ ID NO:21)]
pKi: 4.09
//
binder: WWEWVCSLMCS (linker 6-10 via alpha,alpha'‑meta‑xylylene, triple mutant) [WWEWVCSLMCS (SEQ ID NO:25)]
pKi: 5.17
//
binder: WWEWWCSLMCS (linker 6-10 via alpha,alpha'‑meta‑xylylene, quadruple mutant; also called compound (IVa)) [WWEWWCSLMCS (SEQ ID NO:26)]
pKi: 5.91
//
binder: TSEWVCSLMCS (linker 6-10 via alpha,alpha'‑meta‑xylylene, single mutant) [TSEWVCSLMCS (SEQ ID NO:20)]
pKi: 4.48
//
binder: TWEEVCSLMCS (linker 6-10 via alpha,alpha'‑meta‑xylylene, single mutant) [TWEEVCSLMCS (SEQ ID NO:18)]
pKi: 4.53
//
binder: TSEEVCSLMCS (linker 6-10 via alpha,alpha'‑meta‑xylylene) [TSEEVCSLMCS (SEQ ID NO:16)]
pKi: 4.28
//
binder: FFEFFCSLMCS (linker 6-10 via alpha,alpha'‑meta‑xylylene) [FFEFFCSLMCS (SEQ ID NO:27)]
pKi: 4.88
//
binder: TWEWVCSLMCS (linker 6-10 via alpha,alpha'‑meta‑xylylene, double mutant) [TWEWVCSLMCS (SEQ ID NO:23)]
pKi: 4.84
